Values from the supplement of paper PMC5908809

- Tested on: KAI3 (IL-2 2.5 ng/mL)
- ASSAY_REMARKS: relative IC50 (inflection point of fitted viability curve, relative to fitted max inhibition); higher = less sensitive
- STUDY_CONDITIONS: 72 h
Label scheme for relative IC50: lower than 2 µM is class 0, 2 µM and above is class 1.

Example entries begin here.
Inquiry: Is the recorded value of relative IC50 equal to or greater than 2 µM for this compound? `Cc1c(CN2CCN(C(=O)[C@H](C)O)CC2)sc2c(N3CCOCC3)nc(-c3cnc(N)nc3)nc12`
Reply text: class 0

Inquiry: Next up: `CN(N=O)C(=O)N[C@@H](C=O)[C@@H](O)[C@H](O)[C@H](O)CO`
Reply text: class 1

Inquiry: Next up: `C[C@@H]1CN(CC(=O)Nc2ccc3c(c2)Cc2cccc(-c4cc(=O)cc(N5CCOCC5)o4)c2S3)C[C@H](C)O1`
Reply text: class 1

Inquiry: Next up: `O=C(O)CCCc1ccc(N(CCCl)CCCl)cc1`
Reply text: class 0

Inquiry: Next up: `Cc1ccc(C(=O)Nc2ccc(CN3CCN(C)CC3)c(C(F)(F)F)c2)cc1C#Cc1cnc2cccnn12`
Reply text: class 0

Inquiry: Next up: Cc1c(N)nc([C@H](CC(N)=O)NC[C@H](N)C(N)=O)nc1C(=O)N[C@H](C(=O)N[C@H](C)[C@@H](O)[C@H](C)C(=O)N[C@H](C(=O)NCCc1nc(-c2nc(C(=O)NCCC[S+](C)C)cs2)cs1)[C@@H](C)O)[C@@H](OC1OC(CO)C(O)C(O)C1OC1OC(CO)C(O)C(OC(N)=O)C1O)c1cnc[nH]1 (stereo not given in full)
Reply text: class 0

Inquiry: Next up: `CC(C)n1cnc2c(NCCc3ccc(O)cc3)nc(-c3csc4ccccc34)nc21`
Reply text: class 1

Inquiry: Next up: `O=S(=O)(c1cccc2cnccc12)N1CCCNCC1`
Reply text: class 1

New cases:
Inquiry: Is the recorded value of relative IC50 equal to or greater than 2 µM for this compound? `CCCc1cc(C)[nH]c(=O)c1CNC(=O)c1cc(-c2ccnc(N3CCN(C)CC3)c2)cc2c1cnn2C(C)C`
Reply text: class 1

Inquiry: Next up: `NC(=O)Nc1cc(-c2cccc(F)c2)sc1C(=O)N[C@H]1CCCNC1`
Reply text: class 0

Inquiry: Next up: `CN[C@@H](C)C(=O)N[C@H](C(=O)N1CCC[C@H]1c1nc(C(=O)c2ccc(F)cc2)cs1)C1CCCCC1`
Reply text: class 1

Inquiry: Next up: `CC[C@H](CC#N)OC(=O)N[C@@H](C)c1cccc(NC(=O)Nc2ccc(-c3cnco3)c(OC)c2)c1`
Reply text: class 0

Inquiry: Next up: `CNC(=O)c1ccc2cc([C@@]3(O)CCn4cncc43)ccc2c1`
Reply text: class 1

Inquiry: Next up: `COC[C@H](NC(=O)c1cnc(C)s1)C(=O)N[C@@H](COC)C(=O)N[C@@H](Cc1ccccc1)C(=O)[C@@]1(C)CO1`
Reply text: class 0

Inquiry: Next up: `CCc1cnn2c(NCc3ccc[n+]([O-])c3)cc(N3CCCC[C@H]3CCO)nc12`
Reply text: class 0

###

Overview of reported percent inhibition of viability across a group of compounds:
- System: normal primary NK cells, pool 1 (3 donors), resting (IL-2 0 ng/mL)
- ASSAY_REMARKS: percent inhibition of viability; higher = more inhibition
- STUDY_CONDITIONS: 72 h; 0.1 nM
API: value field is a number in %; no unit string.

Inquiry: Record COc1cccc2c1C(=O)c1c(O)c3c(c(O)c1C2=O)C[C@@](O)(/C(CO)=N/NC(=O)CCCCCN1C(=O)C=CC1=O)C[C@@H]3O[C@H]1C[C@H](N)[C@H](O)[C@H](C)O1 [Aldoxorubicin] (max concentration tested 1000 nM) : what is its percent inhibition of viability with normal primary NK cells, pool 1 (3 donors), resting (IL-2 0 ng/mL)?
Reply text: -26

Inquiry: Next up: Cc1cccc(-c2nn3c(c2-c2ccnc4ccc(C(N)=O)cc24)CCC3)n1 [Galunisertib] (max concentration tested 1000 nM)
Reply text: -3.02

# context switch: different compound, same percent inhibition of viability
Inquiry: Record CC(C)N(C[C@H]1O[C@@H](n2cnc3c(N)ncnc32)[C@H](O)[C@@H]1O)[C@H]1C[C@@H](CCc2nc3cc(C(C)(C)C)ccc3[nH]2)C1 [EPZ-5676] (max concentration tested 1000 nM) : what is its percent inhibition of viability with normal primary NK cells, pool 1 (3 donors), resting (IL-2 0 ng/mL)?
Reply text: 9.51

###

Overview of reported drug sensitivity score across a group of compounds:
- Tested on: KAI3 (IL-2 2.5 ng/mL)
- ASSAY_REMARKS: drug sensitivity score (DSS) (DSS units); higher = more sensitive; extreme values may be limits of the assay
- STUDY_CONDITIONS: 72 h
Lab note: record just the number, no unit beside it.

Solved cases below.
Inquiry: Record C=CCN(/C=C1/C(=O)O[C@H](COC)[C@@]2(C)C1=C(O)C(=O)C1=C2[C@H](OC(C)=O)C[C@]2(C)C(=O)CC[C@@H]12)CC=C [Sonolisib] (max concentration tested 10000 nM) : what is its drug sensitivity score with KAI3 (IL-2 2.5 ng/mL)?
Reply text: 2.98

Inquiry: Next up: O=C(O)CC[C@H]1CC[C@@](c2cc(F)ccc2F)(S(=O)(=O)c2ccc(Cl)cc2)CC1 [MK-0752] (max concentration tested 1000 nM)
Reply text: 0

Inquiry: Next up: COC(=O)N[C@@H](C)CNc1nccc(-c2cn(C(C)C)nc2-c2cc(Cl)cc(NS(C)(=O)=O)c2F)n1 [Encorafenib] (max concentration tested 1000 nM)
Reply text: 1.37

New cases:
Inquiry: Record Nc1ccccc1NC(=O)c1ccc(CNc2nccc(-c3cccnc3)n2)cc1 [Mocetinostat] (max concentration tested 10000 nM) : what is its drug sensitivity score with KAI3 (IL-2 2.5 ng/mL)?
Reply text: 17.2

Inquiry: Next up: NC(=O)c1cccc(-c2cccc(OC(=O)NC3CCCCC3)c2)c1 [URB597] (max concentration tested 1000 nM)
Reply text: 0.21

Inquiry: Next up: C=CCn1c(=O)c2cnc(Nc3ccc(N4CCN(C)CC4)cc3)nc2n1-c1cccc(C(C)(C)O)n1 [MK1775] (max concentration tested 10000 nM)
Reply text: 21.8

Inquiry: Next up: CN[C@@H](C)C(=O)N[C@H]1CN(C(=O)CC(C)C)CC[C@H]2CC[C@@H](C(=O)NC(c3ccccc3)c3ccccc3)N2C1=O [AT-406] (max concentration tested 10000 nM)
Reply text: 5.12

Inquiry: Next up: COc1cccc2c1C(=O)c1c(O)c3c(c(O)c1C2=O)C[C@@](O)(/C(CO)=N/NC(=O)CCCCCN1C(=O)C=CC1=O)C[C@@H]3O[C@H]1C[C@H](N)[C@H](O)[C@H](C)O1 [Aldoxorubicin] (max concentration tested 1000 nM)
Reply text: 14.2

Inquiry: Next up: Cc1ccc(Nc2nccc(N(C)c3ccc4c(C)n(C)nc4c3)n2)cc1S(N)(=O)=O [Pazopanib] (max concentration tested 10000 nM)
Reply text: 1.17

Inquiry: Next up: CS(=O)(=O)N1CCN(Cc2cc3nc(-c4cccc5[nH]ncc45)nc(N4CCOCC4)c3s2)CC1 [Pictilisib] (max concentration tested 10000 nM)
Reply text: 4.66

Inquiry: Next up: COc1cc(OC)c(/C=C/S(=O)(=O)Cc2ccc(OC)c(NCC(=O)O)c2)c(OC)c1 [Rigosertib] (max concentration tested 10000 nM)
Reply text: 20.3

Inquiry: Next up: CCC(C)(C)C(=O)O[C@H]1C[C@@H](C)C=C2C=C[C@H](C)[C@H](CC[C@@H]3C[C@@H](O)CC(=O)O3)[C@H]21 [Simvastatin] (max concentration tested 10000 nM)
Reply text: 0.61

###

Overview of reported percent inhibition of viability across a group of molecules:
- Test system: DERL-7 (IL-2 2.5 ng/mL)
- ASSAY_REMARKS: percent inhibition of viability; higher = more inhibition
- STUDY_CONDITIONS: 72 h; 0.25 nM
Units required after the number.

Inquiry: Please give the measured percent inhibition of viability for this molecule: COc1ccc2c(OCc3nnc4ccc(-c5ccccc5)nn34)ccnc2c1 [AMG-208] (max concentration tested 2500 nM)
Reply text: -3.09%

Inquiry: Next up: CC(=O)OC[C@H]1O[C@@H]([S-])[C@H](OC(C)=O)[C@@H](OC(C)=O)[C@@H]1OC(C)=O.CCP(CC)CC.[Au+] [Auranofin] (max concentration tested 2500 nM)
Reply text: -0.63%

Inquiry: Next up: CC(C)(C)c1nc(-c2cccc(NS(=O)(=O)c3c(F)cccc3F)c2F)c(-c2ccnc(N)n2)s1 [Dabrafenib] (max concentration tested 2500 nM)
Reply text: 3.06%

# context switch: different molecule, same percent inhibition of viability
Inquiry: Please give the measured percent inhibition of viability for this molecule: COc1ccc(Cl)c(Nc2nc3ccccc3nc2NS(=O)(=O)c2cccc(NC(=O)C(C)(C)N)c2)c1 [Pilaralisib] (max concentration tested 2500 nM)
Reply text: 4.27%
